assayed_system: T1, CS1-Fc (human, UniProt Q9NQ25 23-226)
T1 construct: also called recombinant human CS1-Fc; CS1-Fc polypeptide; not shown: Fc portion of CS1-Fc
T1 sequence: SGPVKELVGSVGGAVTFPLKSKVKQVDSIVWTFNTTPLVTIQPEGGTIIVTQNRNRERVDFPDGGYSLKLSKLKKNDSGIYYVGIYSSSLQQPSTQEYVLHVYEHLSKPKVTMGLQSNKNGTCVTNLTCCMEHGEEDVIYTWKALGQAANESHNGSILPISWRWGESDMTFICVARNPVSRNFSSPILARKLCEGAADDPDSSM
measurement_notes: phage ELISA, CS1-Fc captured on anti-human IgG1-Fc, anti-M13-HRP, A450 target / A450 IgG1-Fc
Below, each of the binders is paired with its reported ELISA score (ratio of phage binding to CS1-Fc vs IgG-Fc) value.

Known results for binders:
SEQ ID NO 73 (designed binder) MGSWSEFWHRLSAIDHRLGALGGSEAELAAFEKEIAAFESELQAYKGKGNPEVEELRAYAAEIRRNLQAYRHN has a reported ELISA score (ratio of phage binding to CS1-Fc vs IgG-Fc) of 18.7 ratio

Data point: SEQ ID NO 70 (designed binder) MGSWMEFWHRLTAIDSRLEALGGSEAELAAFEKEIAAFESELQAYKGKGNPEVEDLRQYAASIRKSLQAYRHN ; ELISA score (ratio of phage binding to CS1-Fc vs IgG-Fc) = 10.5 ratio

For the next question, use this binder.
The binder listed as SEQ ID NO 83 (designed binder) MGSWTEFWARLTAIDLRLIALGGSEAELAAFEKEIAAFESELQAYKGKGNPEVEELRDYAAFIRANLQAYRHN shows ELISA score (ratio of phage binding to CS1-Fc vs IgG-Fc) equal to 13.4 ratio
